This section presents compounds with their documented pIC50 values.
target: Tyrosine-protein kinase Lck (Homo sapiens, UniProt P06239); experiment: Inhibitory activity against lck
Sequence (P06239 whole entry): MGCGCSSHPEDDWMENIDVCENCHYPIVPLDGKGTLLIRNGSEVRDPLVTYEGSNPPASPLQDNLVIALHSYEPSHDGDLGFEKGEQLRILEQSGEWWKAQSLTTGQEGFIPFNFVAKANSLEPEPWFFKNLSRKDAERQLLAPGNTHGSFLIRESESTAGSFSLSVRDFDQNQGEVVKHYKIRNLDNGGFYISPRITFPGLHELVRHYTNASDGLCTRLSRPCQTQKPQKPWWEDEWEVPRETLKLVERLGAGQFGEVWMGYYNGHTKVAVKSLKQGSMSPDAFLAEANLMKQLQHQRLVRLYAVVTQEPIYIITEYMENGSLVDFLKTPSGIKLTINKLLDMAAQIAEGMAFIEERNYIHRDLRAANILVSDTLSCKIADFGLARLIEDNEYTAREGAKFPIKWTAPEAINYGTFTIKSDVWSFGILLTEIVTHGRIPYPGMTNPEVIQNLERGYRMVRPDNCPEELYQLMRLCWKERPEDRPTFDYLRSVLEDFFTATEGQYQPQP
pIC50: −log10 of the molar value.
QUANTITY: pIC50

| SMILES RECORD | MEASUREMENT TARGET | QUANTITY | TEST RESULT |
| --- | --- | --- | --- |
| COc1cc(-c2nn(C3CCN(C4CCOCC4)CC3)c3ncnc(N)c23)ccc1NC(=O)c1cc(O)c2ccccc2n1 | Tyrosine-protein kinase Lck (Homo sapiens, UniProt P06239) | pIC50 | 5.04 |
| COc1cc(-c2nn(C3CCN(C4CCN(C)CC4)CC3)c3ncnc(N)c23)ccc1NC(=O)c1ccc(C(F)(F)F)cc1F | Tyrosine-protein kinase Lck (Homo sapiens, UniProt P06239) | pIC50 | 7.64 |
| COc1cc(-c2nn(C3CCN(C4CCOCC4)CC3)c3ncnc(N)c23)ccc1NC(=O)c1ccc(OC(F)(F)F)cc1 | Tyrosine-protein kinase Lck (Homo sapiens, UniProt P06239) | pIC50 | 5.63 |
| COc1cc(-c2nn(C3CCN(C4CCOCC4)CC3)c3ncnc(N)c23)ccc1NC(=O)c1ccc(C(F)(F)F)cc1F | Tyrosine-protein kinase Lck (Homo sapiens, UniProt P06239) | pIC50 | 6.99 |
